// provenance: ChEMBL document CHEMBL3991601

Target: Mitogen-activated protein kinase kinase kinase kinase 1 (Homo sapiens); note: in the data inactive means no Kd found up to 30 µM
Sequence (Q92918 whole entry): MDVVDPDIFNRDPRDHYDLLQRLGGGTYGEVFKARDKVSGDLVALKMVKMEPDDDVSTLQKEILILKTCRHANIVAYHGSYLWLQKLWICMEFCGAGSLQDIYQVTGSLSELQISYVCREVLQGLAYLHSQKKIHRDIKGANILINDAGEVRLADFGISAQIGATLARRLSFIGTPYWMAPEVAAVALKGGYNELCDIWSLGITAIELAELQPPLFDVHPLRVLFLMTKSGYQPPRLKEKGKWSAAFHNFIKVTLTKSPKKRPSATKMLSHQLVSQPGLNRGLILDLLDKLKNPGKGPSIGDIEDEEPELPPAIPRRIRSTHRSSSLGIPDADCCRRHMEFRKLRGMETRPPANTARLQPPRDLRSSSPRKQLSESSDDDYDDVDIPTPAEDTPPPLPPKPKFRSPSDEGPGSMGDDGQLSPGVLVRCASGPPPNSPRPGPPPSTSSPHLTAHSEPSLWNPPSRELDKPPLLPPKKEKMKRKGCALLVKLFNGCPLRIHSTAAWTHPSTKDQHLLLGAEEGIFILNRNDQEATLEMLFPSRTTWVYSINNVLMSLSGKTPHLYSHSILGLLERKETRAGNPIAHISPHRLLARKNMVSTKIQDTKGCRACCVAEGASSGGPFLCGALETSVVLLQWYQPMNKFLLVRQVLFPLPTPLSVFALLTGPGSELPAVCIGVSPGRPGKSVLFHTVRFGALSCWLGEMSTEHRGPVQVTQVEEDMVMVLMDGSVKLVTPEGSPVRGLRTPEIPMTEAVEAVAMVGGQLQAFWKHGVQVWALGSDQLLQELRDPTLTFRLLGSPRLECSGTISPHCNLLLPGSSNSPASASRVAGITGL
Active and inactive are the calls of the source.
Thanks in advance; please answer with one of these: y for active, n for inactive

Worked examples follow.
Compound: CCOc1cc2ncc(C#N)c(Nc3ccc(F)c(Cl)c3)c2cc1NC(=O)/C=C/CN(C)C [PELITINIB]
Classification: y
//
Compound: Cc1cnc(NC(=O)Nc2cc(Br)c(C)cc2OC[C@@H]2CNCCO2)cn1 [RABUSERTIB]
Classification: n
//
Compound: CCNC(=O)C#Cc1ccc2c(c1)NC(=O)/C2=C(\Nc1ccc(CN(C)C)cc1)c1ccccc1
Classification: y
//
Compound: C=CC(=O)N1CCC[C@H](n2c(=O)n(-c3ccc(Oc4ccccc4)cc3)c3c(N)ncnc32)C1
Classification: n
//
Compound: CC(C)(C)c1nc(-c2cccc(NS(=O)(=O)c3c(F)cccc3F)c2F)c(-c2ccnc(N)n2)s1 [DABRAFENIB]
Classification: n

Pending compound:
# lookup: test call for N#CC1(c2ccc(NC(=O)c3cccnc3NCc3ccncc3)cc2)CCCC1 [RIVOCERANIB]
n

* * *

Calls of active or inactive are those of the source.
Kd, Calcium/calmodulin-dependent protein kinase type IV (Homo sapiens), per-entry values.

Sample records with Kd:
Molecular string: Cc1cc(Nc2ncc(Cl)c(Nc3ccccc3S(=O)(=O)C(C)C)n2)c(OC(C)C)cc1C1CCNCC1
Kd: 0.635 µM (active)
//
Molecular string: Cc1cc(C(=O)NOCCO)c(Nc2ccc(I)cc2F)n(C)c1=O
Kd: > 30 µM (inactive)
//
Molecular string: Cc1nc2cc(-c3nn(C(C)C)c4ncnc(N)c34)ccc2o1
Kd: 5.96 µM (active)
//
Molecular string: O=C(Nc1c[nH]nc1-c1nc2cc(CN3CCOCC3)ccc2[nH]1)NC1CC1
Kd: > 30 µM (inactive)
//
Molecular string: C[C@H]1CNCCCN1S(=O)(=O)c1cccc2cncc(F)c12
Kd: > 30 µM (inactive)
//
Molecular string: CO[C@H]1C[C@@H]2CC[C@@H](C)[C@@](O)(O2)C(=O)C(=O)N2CCCC[C@H]2C(=O)O[C@H]([C@H](C)C[C@@H]2CC[C@@H](O)[C@H](OC)C2)CC(=O)[C@H](C)/C=C(\C)[C@@H](O)[C@@H](OC)C(=O)[C@H](C)C[C@H](C)/C=C/C=C/C=C/1C
Kd: > 30 µM (inactive)

// next item, Kd requested
For the compound shown here, `NC(=O)c1c(OCc2c(F)cc(Br)cc2F)nsc1NC(=O)NCCCCN1CCCC1` , give the reported Kd.
> 30 µM (inactive)

* * *

For each of the molecules below, state its Kd.
Target: Serine/threonine-protein kinase LATS1 (Homo sapiens); note: in the data inactive means no Kd found up to 30 µM
Sequence (O95835 whole entry): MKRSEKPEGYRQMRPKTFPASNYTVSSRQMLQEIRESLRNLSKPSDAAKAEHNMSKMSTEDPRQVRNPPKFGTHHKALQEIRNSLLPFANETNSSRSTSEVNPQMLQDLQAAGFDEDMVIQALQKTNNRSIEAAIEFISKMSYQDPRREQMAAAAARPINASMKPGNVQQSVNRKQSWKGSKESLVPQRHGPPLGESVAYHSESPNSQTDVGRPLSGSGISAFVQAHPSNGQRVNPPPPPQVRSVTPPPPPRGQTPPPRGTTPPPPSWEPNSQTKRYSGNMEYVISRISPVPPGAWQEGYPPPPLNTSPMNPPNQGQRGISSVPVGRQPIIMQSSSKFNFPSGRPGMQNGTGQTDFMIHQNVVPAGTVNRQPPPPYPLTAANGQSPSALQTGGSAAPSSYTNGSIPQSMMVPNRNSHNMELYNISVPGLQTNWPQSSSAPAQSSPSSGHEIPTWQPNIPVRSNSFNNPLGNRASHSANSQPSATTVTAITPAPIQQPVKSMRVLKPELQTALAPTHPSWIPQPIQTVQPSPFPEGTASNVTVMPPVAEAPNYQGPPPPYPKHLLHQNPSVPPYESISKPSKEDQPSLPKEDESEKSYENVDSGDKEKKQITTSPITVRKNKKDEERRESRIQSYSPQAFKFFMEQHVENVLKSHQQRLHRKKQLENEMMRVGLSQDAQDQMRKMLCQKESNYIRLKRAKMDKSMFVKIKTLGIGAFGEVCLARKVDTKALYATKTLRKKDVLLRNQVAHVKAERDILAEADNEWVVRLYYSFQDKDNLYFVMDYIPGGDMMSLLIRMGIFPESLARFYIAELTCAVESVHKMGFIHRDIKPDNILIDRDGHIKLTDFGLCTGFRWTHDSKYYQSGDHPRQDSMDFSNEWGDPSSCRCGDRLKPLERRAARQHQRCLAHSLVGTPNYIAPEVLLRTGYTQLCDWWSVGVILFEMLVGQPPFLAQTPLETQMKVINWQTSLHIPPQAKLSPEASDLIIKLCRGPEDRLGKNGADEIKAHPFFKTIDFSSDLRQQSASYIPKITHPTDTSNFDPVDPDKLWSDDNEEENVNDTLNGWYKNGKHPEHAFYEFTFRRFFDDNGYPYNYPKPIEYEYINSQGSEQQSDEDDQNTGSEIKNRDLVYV
Activity calls are given as the source filed them.

Molecule: Cc1csc(-c2nnc(Nc3ccc(Oc4ncccc4-c4ccnc(N)n4)cc3)c3ccccc23)c1
Kd: > 30 µM (inactive)
//
Molecule: CO[C@H]1C[C@@H]2CC[C@@H](C)[C@@](O)(O2)C(=O)C(=O)N2CCCC[C@H]2C(=O)O[C@H]([C@H](C)C[C@@H]2CC[C@@H](OP(C)(C)=O)[C@H](OC)C2)CC(=O)[C@H](C)/C=C(\C)[C@@H](O)[C@@H](OC)C(=O)[C@H](C)C[C@H](C)/C=C/C=C/C=C/1C
Kd: > 30 µM (inactive)

// next item, Kd requested
For the molecule shown here, O=c1[nH]ccc2cc(OC3CCNCC3)ccc12 [SAR-407899 FREE BASE] , give the reported Kd.
> 30 µM (inactive)

* * *

Biological target: Proto-oncogene tyrosine-protein kinase Src (Homo sapiens); note: in the data inactive means no Kd found up to 30 µM
Sequence (P12931 2-536 limits assumed): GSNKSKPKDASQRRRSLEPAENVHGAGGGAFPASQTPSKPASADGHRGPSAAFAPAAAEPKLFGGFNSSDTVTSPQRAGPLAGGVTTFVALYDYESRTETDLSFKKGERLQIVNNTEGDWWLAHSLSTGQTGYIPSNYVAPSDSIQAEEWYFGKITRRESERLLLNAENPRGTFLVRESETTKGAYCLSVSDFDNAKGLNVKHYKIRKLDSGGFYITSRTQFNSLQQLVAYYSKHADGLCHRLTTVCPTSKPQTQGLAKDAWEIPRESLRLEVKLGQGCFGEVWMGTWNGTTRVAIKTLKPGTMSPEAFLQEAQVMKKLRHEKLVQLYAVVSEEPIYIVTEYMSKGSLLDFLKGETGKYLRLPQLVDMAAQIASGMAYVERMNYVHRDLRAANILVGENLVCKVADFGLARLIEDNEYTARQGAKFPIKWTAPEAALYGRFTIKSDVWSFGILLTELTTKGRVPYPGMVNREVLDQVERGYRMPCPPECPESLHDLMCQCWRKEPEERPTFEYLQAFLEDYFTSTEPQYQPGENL
Activity calls are given as the source filed them.
Thanks in advance; please answer with one of these: 1.0 for active, 0.0 for inactive

Worked examples follow.
Compound: O=c1[nH]ccc2cc(OC3CCNCC3)ccc12 [SAR-407899 FREE BASE]
Tgt: Proto-oncogene tyrosine-protein kinase Src (Homo sapiens)
Classification: 0.0

Compound: COc1cc2c(Nc3ccc(Cl)c(Cl)c3F)ncnc2cc1OC[C@@H]1C[C@@H]2CN(C)C[C@@H]2C1 [TESEVATINIB]
Tgt: Proto-oncogene tyrosine-protein kinase Src (Homo sapiens)
Classification: 1.0

Compound: O=C1NC(=O)[C@@H](c2cn3c4c(cccc24)CCC3)[C@@H]1c1c[nH]c2ccccc12 [TIVANTINIB]
Tgt: Proto-oncogene tyrosine-protein kinase Src (Homo sapiens)
Classification: 0.0

Compound: Cn1cc(-c2cnc3ccc4ccc(CS(=O)(=O)NCc5ccccn5)cc4c(=O)c3c2)cn1 [MK-8033]
Tgt: Proto-oncogene tyrosine-protein kinase Src (Homo sapiens)
Classification: 0.0

Compound: CCn1c(C(=O)N(C2CC2)C2CC2)cc2c3c(ncn3C)c(Nc3cc(C)n(C)n3)nc21 [BMS-911543]
Tgt: Proto-oncogene tyrosine-protein kinase Src (Homo sapiens)
Classification: 0.0

Compound: COc1cc([C@@H]2c3cc4c(cc3[C@H](O)[C@H]3COC(=O)[C@@H]23)OCO4)cc(OC)c1OC [AXL-1717]
Tgt: Proto-oncogene tyrosine-protein kinase Src (Homo sapiens)
Classification: 0.0

# lookup: test call for NC(=O)Nc1cc(-c2cccc(F)c2)sc1C(=O)N[C@H]1CCCNC1 [AZD-7762]
1.0

Same lookup for CCOc1cc2ncc(C#N)c(Nc3ccc(F)c(Cl)c3)c2cc1NC(=O)/C=C/CN(C)C [PELITINIB] , please.
0.0

Same lookup for CC(C)c1cc(CNc2nc(Nc3cc(C4CC4)[nH]n3)cc(N3CCN(C)CC3)n2)on1 [XL-228] , please.
1.0

Same lookup for Cc1cc(Nc2ncnc3ccc(NC4=NC(C)(C)CO4)cc23)ccc1Oc1ccn2ncnc2c1 [TUCATINIB] , please.
0.0

Same lookup for NC1(c2ccc(-c3nc4ccn5c(=O)[nH]nc5c4cc3-c3ccccc3)cc2)CCC1 [MK-2206] , please.
0.0

Same lookup for C=CC(=O)Nc1cc2c(Nc3ccc(F)c(Cl)c3)ncnc2cc1C#CC(C)(C)N1CCN(C)CC1 [AV-412 FREE BASE] , please.
0.0

Same lookup for Cc1csc(-c2nnc(Nc3ccc(Oc4ncccc4-c4ccnc(N)n4)cc3)c3ccccc23)c1 [AMG-900] , please.
0.0

Same lookup for CN1C/C=C/CCOc2cccc(c2)-c2ccnc(n2)Nc2cccc(c2)C1 [ZOTIRACICLIB] , please.
0.0

Same lookup for N#CC1(c2ccc(NC(=O)c3cccnc3NCc3ccncc3)cc2)CCCC1 [RIVOCERANIB] , please.
0.0

Same lookup for Cc1nc(Nc2n[nH]c3c2CN(C(=O)N[C@H](CN(C)C)c2ccccc2)C3(C)C)c2sccc2n1 [PF-03758309] , please.
1.0

Same lookup for CNC(=O)c1cccc2cc(Oc3ccnc4cc(OCC5(N)CC5)c(OC)cc34)ccc12 [LUCITANIB] , please.
0.0

* * *

Target: Receptor-type tyrosine-protein kinase FLT3 (Homo sapiens, UniProt P36888); note: in the data inactive means no Kd found up to 30 µM
Sequence (P36888 whole entry): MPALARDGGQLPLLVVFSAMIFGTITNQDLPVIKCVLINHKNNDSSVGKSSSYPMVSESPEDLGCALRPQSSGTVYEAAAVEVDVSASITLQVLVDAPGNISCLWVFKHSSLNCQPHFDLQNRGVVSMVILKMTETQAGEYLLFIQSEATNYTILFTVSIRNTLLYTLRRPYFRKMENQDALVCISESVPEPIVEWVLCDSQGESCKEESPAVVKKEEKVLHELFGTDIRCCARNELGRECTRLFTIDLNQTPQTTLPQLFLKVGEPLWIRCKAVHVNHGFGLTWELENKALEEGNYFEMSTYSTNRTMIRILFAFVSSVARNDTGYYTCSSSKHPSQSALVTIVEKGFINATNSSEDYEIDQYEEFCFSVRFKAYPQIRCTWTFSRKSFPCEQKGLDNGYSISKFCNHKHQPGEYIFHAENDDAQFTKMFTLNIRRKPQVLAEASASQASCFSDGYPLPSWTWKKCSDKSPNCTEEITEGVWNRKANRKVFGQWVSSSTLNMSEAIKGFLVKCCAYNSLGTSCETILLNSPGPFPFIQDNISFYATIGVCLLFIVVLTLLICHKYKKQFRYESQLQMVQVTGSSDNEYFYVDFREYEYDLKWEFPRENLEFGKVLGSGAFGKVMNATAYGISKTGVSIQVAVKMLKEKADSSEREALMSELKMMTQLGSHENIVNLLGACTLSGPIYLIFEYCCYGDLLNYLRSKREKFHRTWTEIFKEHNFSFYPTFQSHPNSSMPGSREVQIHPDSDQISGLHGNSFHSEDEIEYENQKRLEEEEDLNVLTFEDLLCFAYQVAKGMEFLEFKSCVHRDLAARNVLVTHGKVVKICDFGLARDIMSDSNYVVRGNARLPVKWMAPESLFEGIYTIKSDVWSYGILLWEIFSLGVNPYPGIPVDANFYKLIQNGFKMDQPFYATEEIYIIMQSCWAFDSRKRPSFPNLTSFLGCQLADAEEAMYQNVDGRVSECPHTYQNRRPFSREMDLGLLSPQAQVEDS
Activity calls are given as the source filed them.
For each of the molecules below, state its Kd.

Sample records with Kd:
Molecule: Cn1cnc2c(F)c(Nc3ccc(Br)cc3F)c(C(=O)NOCCO)cc21 [BINIMETINIB]
Kd: > 30 µM (inactive)
--
Molecule: Cc1cc(C(=O)NOCCO)c(Nc2ccc(I)cc2F)n(C)c1=O [AZD-8330]
Kd: > 30 µM (inactive)
--
Molecule: CO[C@H]1C[C@@H]2CC[C@@H](C)[C@@](O)(O2)C(=O)C(=O)N2CCCC[C@H]2C(=O)O[C@H]([C@H](C)C[C@@H]2CC[C@@H](OC(=O)C(C)(CO)CO)[C@H](OC)C2)CC(=O)[C@H](C)/C=C(\C)[C@@H](O)[C@@H](OC)C(=O)[C@H](C)C[C@H](C)/C=C/C=C/C=C/1C [TEMSIROLIMUS]
Kd: > 30 µM (inactive)
--
Molecule: CN1CCN(CCOc2cc(OC3CCOCC3)c3c(Nc4c(Cl)ccc5c4OCO5)ncnc3c2)CC1 [SARACATINIB]
Kd: 0.14 µM
--
Molecule: Cn1cc(-c2cnn3c(N)c(Br)c([C@@H]4CCCNC4)nc23)cn1 [SCH-900776]
Kd: > 30 µM (inactive)

// next item, Kd requested
For the molecule shown here, CO[C@H]1C[C@@H]2CC[C@@H](C)[C@@](O)(O2)C(=O)C(=O)N2CCCC[C@H]2C(=O)O[C@H]([C@H](C)C[C@@H]2CC[C@@H](O)[C@H](OC)C2)CC(=O)[C@H](C)/C=C(\C)[C@@H](O)[C@@H](OC)C(=O)[C@H](C)C[C@H](C)/C=C/C=C/C=C/1C [SIROLIMUS] , give the reported Kd.
> 30 µM (inactive)

* * *

For each of the molecules below, state its Kd.
Molecular target: Serine/threonine-protein kinase pim-1 (Homo sapiens, UniProt P11309); note: in the data inactive means no Kd found up to 30 µM
Sequence (P11309 whole entry): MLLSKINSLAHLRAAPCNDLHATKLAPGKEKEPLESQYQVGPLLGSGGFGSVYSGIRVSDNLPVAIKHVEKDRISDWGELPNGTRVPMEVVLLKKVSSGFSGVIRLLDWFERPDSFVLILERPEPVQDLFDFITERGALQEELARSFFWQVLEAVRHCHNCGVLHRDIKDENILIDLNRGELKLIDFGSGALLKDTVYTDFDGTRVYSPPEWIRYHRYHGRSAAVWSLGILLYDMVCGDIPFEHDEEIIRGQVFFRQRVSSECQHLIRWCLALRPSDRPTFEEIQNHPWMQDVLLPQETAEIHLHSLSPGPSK
The source made the active and inactive calls.

Batch request: Kd for each of the following molecules.
1. C[C@H]1CNCCCN1S(=O)(=O)c1cccc2cncc(F)c12
2. CNC(=O)c1nn(C)c2c1C(C)(C)Cc1cnc(Nc3ccc(N4CCN(C)CC4)cc3)nc1-2

1: > 30 µM (inactive); 2: > 30 µM (inactive)

Batch request: Kd for each of the following molecules.
1. NC1(c2ccc(-c3nc4ccn5c(=O)[nH]nc5c4cc3-c3ccccc3)cc2)CCC1
2. Cc1nc(NC(=O)N2CCC[C@H]2C(N)=O)sc1-c1ccnc(C(C)(C)C(F)(F)F)c1
3. C[C@@H](Oc1cc(C(=O)Nc2ccc(C(=O)N3CCN(C)CC3)cc2)nnc1N)c1c(Cl)ccc(F)c1Cl

["> 30 µM (inactive)", "> 30 µM (inactive)", "> 30 µM (inactive)"]
